Values were extracted from ChEMBL document CHEMBL1201862.

Tested on: UACC-257
Assay: NCI tumour cell line growth inhibition, 48 h
The source made the active and inactive calls. Cut-off read from the data, not from the text of the source: active = GI50 up to about 1.1 µM and inactive = higher.
Measured GI50, listed per entry for reference.

{"Molecule": "O=S(O)CCCSSSCCCS(=O)O", "GI50": "> 100 µM (inactive)"}
{"Molecule": "CC(=O)NC1=C(C)C(=O)c2c(nc3n2CCC3OC(=O)c2ccccc2)C1=O (stereo unspecified)", "GI50": "1.54 µM (inactive)"}
{"Molecule": "COc1cccc2c1OC1c3ccccc3OCC1C2 (stereo unspecified)", "GI50": "83.6 µM (inactive)"}
{"Molecule": "CC(=O)/C(=C\\C1=CCCO1)C(=O)Nc1ccccc1C", "GI50": "> 100 µM (inactive)"}
{"Molecule": "Cc1ccc(NC(=O)CCC(=O)C2CC(=O)CCC2=O)cc1C (stereo unspecified)", "GI50": "> 100 µM (inactive)"}
{"Molecule": "CN/N=C(/CC(=O)c1sc(NNC(C)=O)nc1C)C(=O)Nc1ccc(OC)cc1OC", "GI50": "> 100 µM (inactive)"}
